Tested on: JEG-3
experiment_summary: Primary qHTS to identify gynecologic anti-cancer compounds using libraries of approved drugs and bioactive compounds (AID 1345084); also: nearly all actives have a fitted effect of over 55% in size
study_conditions: Gynecologic cancer cell panel viability, ATPlite luminescence, 48 h; series mostly up to 57.5 µM
Source text: National Center for Advancing Translational Sciences [NCATS] Assay Overview: Chemotherapeutic drug responses vary from cancer to cancer and from patient to patient. […] ATPlite is a luminescence based assay reliant on the conversion of a luciferase substrate to light in the presence of ATP. As a cytotoxic compound will suppress growth and decrease the number of cells, the concentration of ATP will decrease, and less light signal will be detected in the well. […]
Results filed as inconclusive are left out. The source made the active and inactive calls. Calls follow the shape of the dose curve; as a rule, active = well fitted cell-killing curve with a large enough effect; inconclusive = small, poorly fitted or top-dose-only effect, or effect the other way; inactive = flat fitted curve, though single readings scatter.
readout: activity change, negative = cytotoxicity

// solved cases for activity change, negative = cytotoxicity follow
compound: CN1C(=O)C(Cc2ccc3ccccc3c2)N=C(c2ccc(O)cc2)c2cc(Cl)ccc21 (stereo not drawn)
activity change, negative = cytotoxicity: inactive
//
compound: FC(F)(F)c1ccc(N2CCNCC2)nc1Cl
activity change, negative = cytotoxicity: inactive
//
compound: CC1CCCC(O)CCC/C=C/c2cc(O)cc(O)c2C(=O)O1 (stereo not drawn)
activity change, negative = cytotoxicity: inactive
//
compound: CC1(C)C(=O)N(c2ccc(C#N)c(C(F)(F)F)c2)C(=S)N1c1ccc(C(N)=O)c(F)c1
activity change, negative = cytotoxicity: inactive

Field: next compound
Incoming: Fill in activity change, negative = cytotoxicity for C#CC1(O)CCC2C3CCC4=CC(=O)CCC4=C3C=CC21C (stereo not drawn) tested with JEG-3.
Outgoing: inactive

* * *

System: HACAT
experiment_summary: qHTS assay to identify novel small-molecules to repurpose for Merkel cell carcinoma treatment (AID 1296009); also: nearly all actives have a fitted effect of over 60% in size
study_conditions: MCC and control cell lines, CellTiter-Glo viability, 72 h; at 44.8 µM (top of the series) unless noted
From the text: MCC is a rare and aggressive neuroendocrine skin cancer with limited treatment options. Approximately 80% of MCCs have the Merkel cell polyomavirus (MCPyV) DNA integrated into the host genome (virus-positive: VP-MCC) and viral oncogenes drive oncogenesis. The remaining MCCs are virus-negative (VN-MCC) and are caused by UV mutagenesis. […] Using cell viability as a readout (CellTiter-Glo assay) we found both overlapping and distinct drugs that can be repurposed for the treatment of VP-MCC and VN-MCC. […]
Records with an inconclusive call do not appear. Activity calls are given as the source filed them. The call rests on the fitted dose curve; in most records, active means well fitted inhibition curve with a large enough effect; inconclusive means small, poorly fitted or top-dose-only effect; inactive means flat fitted curve, though single readings scatter.
readout: outcome

// solved cases for outcome follow
molecule: C=C(CO)[C@@]12O[C@@H]1[C@@]1(C)C(=CC2=O)CC[C@@H](O)[C@@H]1C
outcome: inactive

molecule: CN(CC[C@H](N)CC(=O)N[C@H]1C=C[C@@H](n2ccc(N)nc2=O)O[C@@H]1C(=O)O)C(=N)N
outcome: inactive [at 9.27 µM]

molecule: COc1ccc2c(c1)c(CCN(C)C)cn2S(=O)(=O)c1ccccc1
outcome: inactive

molecule: COc1cc2c(cc1O)C1(C)CCC(O)C(C)(C)C1CC2=O (centres undefined)
outcome: inactive

molecule: C1=C(c2cnc[nH]2)c2ccsc2CC1
outcome: inactive

molecule: COC(=O)CC1CC2(C(=O)c3c(O)cccc3C2(O)C(=O)OC)C(C)O1 (centres undefined)
outcome: inactive

molecule: CC1(C)C(=O)N(c2ccc(C#N)c(C(F)(F)F)c2)C(=S)N1c1ccc(C(N)=O)c(F)c1
outcome: inactive

molecule: CN1CCc2cc3c(cc2[C@H]1[C@@H]1OC(=O)c2c1ccc1c2OCO1)OCO3
outcome: inactive

molecule: CC(C)OC(=O)c1ccnc2cc(C(OCCN3CCCCC3)c3ccccc3Cl)sc12 (centres undefined)
outcome: inactive

molecule: C/C=C(\C)C(=O)OC1C2C3(C)CCC(OC4CC(OC)C(OC5OC(C)C(O)C(OC)C5O)C(C)O4)CC3CCC23OC32CCC(C(C)=O)C2(C)C1OC(=O)/C(C)=C/C (centres undefined)
outcome: inactive [at 9.27 µM]

Field: next molecule
Incoming: Respond only with outcome recorded for C=C1C(=O)OC2/C=C(\COO)CC/C=C(\COC(C)=O)CC(OC(=O)C(C)CC)C12 (centres undefined)
Outgoing: inactive [at 17.4 µM]

Data origin, for the record: PubChem BioAssay (NCATS)
